Molecular target: Nucleotide-binding oligomerization domain-containing protein 2 (Homo sapiens, UniProt Q9HC29)
Sequence (Q9HC29 whole entry, the tested form may be a part): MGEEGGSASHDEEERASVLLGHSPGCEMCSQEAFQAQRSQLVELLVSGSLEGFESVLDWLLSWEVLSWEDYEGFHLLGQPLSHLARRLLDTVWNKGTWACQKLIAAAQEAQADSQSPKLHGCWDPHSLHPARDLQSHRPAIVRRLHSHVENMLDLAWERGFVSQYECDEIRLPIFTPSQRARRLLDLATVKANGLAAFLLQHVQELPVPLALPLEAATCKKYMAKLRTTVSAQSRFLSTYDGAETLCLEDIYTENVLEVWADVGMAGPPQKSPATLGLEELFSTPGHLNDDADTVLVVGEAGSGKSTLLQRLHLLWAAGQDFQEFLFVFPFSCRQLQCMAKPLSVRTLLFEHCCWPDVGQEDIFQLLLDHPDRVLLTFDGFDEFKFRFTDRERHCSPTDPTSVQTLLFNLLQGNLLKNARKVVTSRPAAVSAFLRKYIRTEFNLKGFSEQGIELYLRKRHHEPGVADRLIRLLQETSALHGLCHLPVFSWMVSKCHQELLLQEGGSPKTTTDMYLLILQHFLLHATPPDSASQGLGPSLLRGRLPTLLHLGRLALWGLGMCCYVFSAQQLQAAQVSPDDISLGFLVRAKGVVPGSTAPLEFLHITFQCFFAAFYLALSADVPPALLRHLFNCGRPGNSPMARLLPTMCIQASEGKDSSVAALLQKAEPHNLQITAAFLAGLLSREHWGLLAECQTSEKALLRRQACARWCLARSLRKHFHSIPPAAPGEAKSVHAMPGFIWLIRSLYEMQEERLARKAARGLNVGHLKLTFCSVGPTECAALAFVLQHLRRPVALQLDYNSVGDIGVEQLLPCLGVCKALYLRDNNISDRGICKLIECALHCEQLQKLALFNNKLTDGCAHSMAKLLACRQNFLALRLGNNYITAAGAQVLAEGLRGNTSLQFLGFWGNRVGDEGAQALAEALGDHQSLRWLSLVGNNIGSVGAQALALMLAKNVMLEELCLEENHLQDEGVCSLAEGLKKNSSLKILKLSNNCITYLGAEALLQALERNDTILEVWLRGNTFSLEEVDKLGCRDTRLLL
Assay: inhibition of NOD2 signaling – set 2, SAR follow-up (AID 2475)
pIC50: −log10 of the molar value.
Measurement Name: pIC50

Compound	Measured Number
Cc1ccc(C)c(SCC(=O)OCC(=O)C(C#N)c2nc3ccccc3[nH]2)c1 (configuration not stated)	5.38
Cc1cc(SCC(=O)OCC(=O)C(C#N)c2nc3ccccc3[nH]2)c(C)cc1Br (configuration not stated)	5.28
